Counter-ions that a name gives are not always drawn.

compound	melting point
NC[C@H]1CNc2cccc(-c3ccccc3C(F)(F)F)c2O1 (as salt: hydrochloride)	179 °C (dec.)
NCC1COc2cc(F)cc(-c3cccc(Cl)c3)c2N1 (racemic) (as salt: hydrochloride)	76 °C (dec.)
COc1ccc(-c2cccc3c2O[C@H](CN)CN3)c(C)c1 (as salt: hydrochloride)	221 °C (dec.)
COc1ccc(-c2cc(Cl)cc3c2NC(CN)CO3)c(C)c1 (racemic) (as salt: hydrochloride)	98 °C (dec.)

###

Quick list: Emax per entry.
Biological target: human 5-HT2C receptor (Homo sapiens)
Construct: expressed in transfected cells; host or cells: CHO (Chinese Hamster Ovary) cells; membrane preparation
Sequence (P28335 33-458): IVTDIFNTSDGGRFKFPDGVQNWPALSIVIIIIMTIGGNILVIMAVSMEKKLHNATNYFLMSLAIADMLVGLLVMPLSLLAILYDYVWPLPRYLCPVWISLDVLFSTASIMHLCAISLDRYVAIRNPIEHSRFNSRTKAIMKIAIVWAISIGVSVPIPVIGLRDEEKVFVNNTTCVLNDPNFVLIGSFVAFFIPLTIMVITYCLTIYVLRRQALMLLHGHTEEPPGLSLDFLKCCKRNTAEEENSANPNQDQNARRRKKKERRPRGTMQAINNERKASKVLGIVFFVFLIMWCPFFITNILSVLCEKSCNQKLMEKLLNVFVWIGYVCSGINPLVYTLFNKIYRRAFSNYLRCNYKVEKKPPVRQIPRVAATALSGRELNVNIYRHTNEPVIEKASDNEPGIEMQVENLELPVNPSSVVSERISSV
Assay: 5-HT2C receptor-stimulated calcium mobilization (FLIPR) in CHO cells
Type: cell-based
Conditions: CHO; read-out: 5-HT2C Function EMax (%)

molecule	Emax, %
CN1CC(CN)Oc2c(-c3ccccc3F)cccc21 (racemic)	60
CN1CC(CN)Oc2c(-c3ccccc3C(F)(F)F)cccc21 (racemic)	70
COc1ccc(-c2cccc3c2O[C@@H](CN)CN3)c(C)c1	74
COc1ccc(-c2cc(Cl)cc3c2NC(CN)CO3)c(Cl)c1 (racemic)	57
NCC1CNc2cccc(-c3ccccc3Cl)c2O1 (racemic)	70
Cc1cc(Cl)ccc1-c1cccc2c1OC(CN)CN2 (racemic)	75
Cc1ccccc1-c1cccc2c1OC(CN)CN2C (racemic)	70
COc1ccc(-c2cccc3c2OC(CN)CN3)c(C)c1 (racemic)	75
CN1CC(CN)Oc2c(-c3ccccc3Cl)cccc21 (racemic)	70

###

Structures can show the parent of a compound that is named as a salt.
Quick list: melting point per entry.
experimental-endpoint: melting point

compound	experimental-endpoint	reported
COc1ccc(-c2cccc3c2O[C@H](CN)CN3)cc1 (as salt: hydrochloride) [Example 45]	melting point	196 °C (dec.)
NCC1CNc2cccc(-c3cc(Cl)ccc3Cl)c2O1 (racemic) (as salt: hydrochloride) [Example 14]	melting point	130 °C (dec.)
NCC1COc2cc(Cl)cc(-c3ccc(Cl)cc3C(F)(F)F)c2N1 (racemic) (as salt: hydrochloride) [Example 37]	melting point	95 °C (dec.)
COc1ccc(-c2cccc3c2O[C@@H](CN)CN3)c(C)c1 (as salt: hydrochloride) [Example 50]	melting point	222 °C (dec.)
CN1CC(CN)Oc2c(-c3cccc(Cl)c3)cccc21 (racemic) (as salt: hydrochloride) [Example 66]	melting point	134 °C (dec.)
NC[C@H]1CNc2cccc(-c3ccccc3F)c2O1 (as salt: hydrochloride) [Example 49]	melting point	190 °C (dec.)
CCN1CC(CN)Oc2c(-c3ccccc3Cl)cccc21 (racemic) (as salt: hydrochloride) [Example 19]	melting point	105 to 106 °C
NC[C@@H]1CNc2cccc(-c3ccccc3Cl)c2O1 (as salt: hydrochloride) [Example 40]	melting point	135 °C (dec.)
Cc1cc(Cl)ccc1-c1cc(F)cc2c1NC(CN)CO2 (racemic) (as salt: hydrochloride) [Example 63]	melting point	90 °C (dec.)
Cc1cc(Cl)ccc1-c1cccc2c1OC(CN)CN2C (racemic) (as salt: hydrochloride) [Example 2]	melting point	109 to 112 °C
NCC1COc2cc(Cl)cc(-c3ccccc3Cl)c2N1 (racemic) (as salt: hydrochloride) [Example 36]	melting point	108 °C (dec.)
COc1ccc(-c2cc(Cl)cc3c2NC(CN)CO3)cc1 (racemic) (as salt: hydrochloride) [Example 26]	melting point	101 °C (dec.)
NC[C@@H]1CNc2cccc(-c3ccccc3C(F)(F)F)c2O1 (as salt: hydrochloride) [Example 41]	melting point	180 °C (dec.)
NC[C@@H]1CNc2cccc(-c3ccc(Cl)cc3C(F)(F)F)c2O1 (as salt: hydrochloride) [Example 67]	melting point	203 °C (dec.)
NCC1CN(CC2CC2)c2cccc(-c3ccccc3Cl)c2O1 (racemic) (as salt: hydrochloride) [Example 12]	melting point	90 °C (dec.)
Cc1ccc(-c2cc(F)cc3c2NC(CN)CO3)c(C(F)(F)F)c1 (racemic) (as salt: hydrochloride) [Example 60]	melting point	86 °C (dec.)
COc1ccc(-c2cccc3c2O[C@@H](CN)CN3)c(Cl)c1 (as salt: hydrochloride) [Example 52]	melting point	215 °C (dec.)
COc1ccc(-c2cccc3c2OC(CN)CN3C)cc1 (racemic) (as salt: hydrochloride) [Example 6]	melting point	90 to 92 °C
NCC1COc2cc(F)cc(-c3ccccc3C(F)(F)F)c2N1 (racemic) (as salt: hydrochloride) [Example 55]	melting point	99 °C (dec.)
NCC1CNc2cc(F)cc(-c3c(Cl)cccc3Cl)c2O1 (racemic) (as salt: hydrochloride) [Example 10]	melting point	135 to 136 °C
NCC1COc2cc(Cl)cc(-c3ccccc3C(F)(F)F)c2N1 (racemic) (as salt: hydrochloride) [Example 25]	melting point	102 °C (dec.)
Cc1ccccc1-c1cc(F)cc2c1NC(CN)CO2 (racemic) (as salt: hydrochloride) [Example 58]	melting point	78 °C (dec.)
